// pIC50 lookup, one value per entry
experimentalTarget: cellular GLS activity (Homo sapiens (Human), UniProt O94925)
Sequence (O94925 55-669): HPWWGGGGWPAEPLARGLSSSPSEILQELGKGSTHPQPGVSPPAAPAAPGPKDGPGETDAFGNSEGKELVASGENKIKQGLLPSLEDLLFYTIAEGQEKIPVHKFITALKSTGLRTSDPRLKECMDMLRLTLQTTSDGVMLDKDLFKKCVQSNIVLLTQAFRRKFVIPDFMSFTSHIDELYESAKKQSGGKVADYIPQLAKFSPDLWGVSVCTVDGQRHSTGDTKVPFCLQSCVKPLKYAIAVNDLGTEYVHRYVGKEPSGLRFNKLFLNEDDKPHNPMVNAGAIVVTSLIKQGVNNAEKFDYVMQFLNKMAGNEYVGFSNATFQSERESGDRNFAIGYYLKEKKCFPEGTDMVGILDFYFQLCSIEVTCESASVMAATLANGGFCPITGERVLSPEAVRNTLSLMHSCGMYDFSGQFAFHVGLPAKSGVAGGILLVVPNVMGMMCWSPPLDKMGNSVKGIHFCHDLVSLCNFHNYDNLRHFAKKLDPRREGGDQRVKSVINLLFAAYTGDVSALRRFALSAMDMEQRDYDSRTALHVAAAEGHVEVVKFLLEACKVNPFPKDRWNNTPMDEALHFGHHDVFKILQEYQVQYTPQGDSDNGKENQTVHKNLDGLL
testMethodNotes: GLS Cell Potency Assay (PC3 coupled assay measuring cellular glutamate depletion)
details: PC3 cells, 6 h incubation, cellular glutamate depletion; geometric mean where repeated; read-out: Assay b) GLS Cell Potency Assay IC50
Hey, just a heads up that pIC50 is the negative log base 10 of the concentration in molar.

Name the recorded pIC50 for `COc1cccc([C@@H](OC)C(=O)Nc2nnc(N[C@@H]3CCN(c4nccnn4)C3)s2)c1` . 7.12

Entry under review: `CCO[C@@H](C(=O)Nc1nnc(N[C@@H]2CCN(c3cccnn3)C2)s1)c1ccccc1` . Reported pIC50? 7.89

Endpoint output: pIC50 of `COc1cccc([C@@H](OC)C(=O)Nc2nnc(N[C@@H]3CCN(c4cccnn4)C3)s2)c1` . Value? 8.28

Fill in: pIC50 of `CCO[C@H](C(=O)Nc1nnc(N[C@@H]2CCN(c3cccnn3)C2)s1)c1ccc(F)c(OC)c1` is ___ 9.25

Requested read-out: pIC50. Entry: `COc1cc([C@H](OC)C(=O)Nc2nnc(N[C@@H]3CCN(c4nccnn4)C3)s2)ccc1F` 6.52

May I ask what pIC50 has been recorded for `CCO[C@@H](C(=O)Nc1nnc(N[C@@H]2CCN(c3nccnn3)C2)s1)c1ccc(F)cc1` ? 7.73

Would you kindly share the measured pIC50 for `COc1ccc([C@H](OC)C(=O)Nc2nnc(N[C@@H]3CCN(c4cccnn4)C3)s2)cc1OC` ? 8.74

Value lookup for pIC50; key = `CCO[C@@H](C(=O)Nc1nnc(N[C@@H]2CCN(c3nccnn3)C2)s1)c1ccccc1` 6.77

***
Please look up its pIC50: `CCO[C@@H](C(=O)Nc1nnc(N[C@@H]2CCN(c3nccnn3)C2)s1)c1ccc(OC)cc1` 6.87

Requested read-out: pIC50. Entry: `CCO[C@@H](C(=O)Nc1nnc(N[C@@H]2CCN(c3nccnn3)C2)s1)c1cccc(OC)c1` 7.71

Field request: pIC50 | item: `COc1cc([C@H](OC)C(=O)Nc2nnc(N[C@@H]3CCN(c4cccnn4)C3)s2)ccc1F` 9.11

May I ask what pIC50 has been recorded for `CO[C@H](C(=O)Nc1nnc(N[C@@H]2CCN(c3cncnn3)C2)s1)c1ccccc1` ? 9.41

Requested field: pIC50. Item: `COc1cccc([C@@H](OC)C(=O)Nc2nnc(N[C@@H]3CCN(c4cncnn4)C3)s2)c1` 9.46
